- assay: Plasma stability assay via LC-MS/MS, rat plasma
- Format: in vitro ADME
- protocol conditions: read-out: t1/2 in rat plasma (Table S19) (converted)
quantity name: half-life at 3 µM (h)
Provide only the numeric value, understood in h.

{"compound": "CNC1(CN(C)C(=O)O/N=C(\\C)[C@H]2CC[C@H]3[C@@H]4CCC5=CC(=O)CC[C@]5(C)[C@H]4CC[C@]23C)CCC1 [20t]", "half-life at 3 µM, h": 0.46}
{"compound": "C/C(=N\\OC(=O)N(C)C[C@@H]1CCCN1)[C@H]1CC[C@H]2[C@@H]3CCC4=CC(=O)CC[C@]4(C)[C@H]3CC[C@]12C.O=C(O)C(F)(F)F [20l]", "half-life at 3 µM, h": 0.4}
{"compound": "CNCCN(C(=O)O/N=C(\\C)[C@H]1CC[C@H]2[C@@H]3CCC4=CC(=O)CC[C@]4(C)[C@H]3CC[C@]12C)C1CC1.O=C(O)C(F)(F)F [20b]", "half-life at 3 µM, h": 2.3}

Okay, next one:
Dear colleague, I am looking for the recorded half-life at 3 µM of the following compound: CNCCN(C)C(=O)O/N=C(\C)[C@H]1CC[C@H]2[C@@H]3CCC4=CC(=O)CC[C@]4(C)[C@H]3CC[C@]12C [20a] 3.88
